Ref: the supplement of paper PMC7214452

tested on: OCI-LY19 (cancer type: DLBCL); assay: normalized area under the dose-response curve (viability relative to DMSO control) (fraction); higher = less sensitive (more viable cells); conditions: exposure time not given
Think of 0.8 as a floor: if normalized area under the dose-response curve stands on it or above, it is y; beneath it, n.

Answered examples (10):
{"compound": "Nc1cc(C(F)(F)F)c(-c2cc(N3CCOCC3)nc(N3CCOCC3)n2)cn1 [Buparlisib]", "class-label": "n"}
{"compound": "Cc1ccc(C(=O)Nc2ccc(CN3CCN(C)CC3)c(C(F)(F)F)c2)cc1C#Cc1cnc2cccnn12 [Ponatinib]", "class-label": "n"}
{"compound": "Nc1nc(F)nc2c1ncn2[C@@H]1O[C@H](COP(=O)(O)O)[C@@H](O)[C@@H]1O [Fludarabine phosphate]", "class-label": "y"}
{"compound": "C=CC(=O)N1CCC[C@@H](n2nc(-c3ccc(Oc4ccccc4)cc3)c3c(N)ncnc32)C1 [Ibrutinib]", "class-label": "y"}
{"compound": "COc1cc2nccc(Oc3ccc(NC(=O)C4(C(=O)Nc5ccc(F)cc5)CC4)cc3)c2cc1OC [Cabozantinib]", "class-label": "y"}
{"compound": "CC1(COc2ccc3c(c2)ncn3-c2ccc3cccc(N4CCC(N)CC4)c3n2)COC1 [Crenolanib]", "class-label": "y"}
{"compound": "COc1cc(Nc2c(C#N)cnc3cc(OCCCN4CCN(C)CC4)c(OC)cc23)c(Cl)cc1Cl [Bosutinib]", "class-label": "y"}
{"compound": "Nc1nc(Cl)nc2c1ncn2[C@H]1C[C@H](O)[C@@H](CO)O1 [Cladribine]", "class-label": "y"}
{"compound": "O=C(/C=C\\n1cnc(-c2cc(C(F)(F)F)cc(C(F)(F)F)c2)n1)NNc1cnccn1 [Selinexor]", "class-label": "n"}
{"compound": "CO[C@H]1C[C@@H]2CC[C@@H](C)[C@@](O)(O2)C(=O)C(=O)N2CCCC[C@H]2C(=O)O[C@H]([C@H](C)C[C@@H]2CC[C@@H](OC(=O)C(C)(CO)CO)[C@H](OC)C2)CC(=O)[C@H](C)/C=C(\\C)[C@@H](O)[C@@H](OC)C(=O)[C@H](C)C[C@H](C)/C=C/C=C/C=C/1C [Temsirolimus]", "class-label": "n"}

# next compound below
Query: Is reported normalized area under the dose-response curve greater than or equal to 0.8 here: Cc1[nH]c2ccccc2c1CCNCc1ccc(/C=C/C(=O)NO)cc1 [Panobinostat]
Result: n
